Recorded values, source the supplement of paper PMC6555819.

# Tested on: LXRb homodimer (NR concentration 270 nM)
# ASSAY OVERVIEW: PBM binding z-score (relative to random genomic background probes); higher = stronger binding; sequences stand for … in GC…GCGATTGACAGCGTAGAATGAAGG
Think of 0.01 as a floor: if PBM binding z-score stands on it or above, it is 1.0; beneath it, 0.0.

RESIDUE SEQUENCE	ASSIGNED CLASS
GCTGGTAGATCAAGGTTAAGAAAGACTAAGCTAA	0.0
CCTTACGGGTCACGAGGTGATAGCACGACGAGCG	0.0
GCTGCTAGGTCAGCTTGGTCAGCTAACGGGTACG	1.0
ATCTCTAGGTAAAAGTGCAGTGAATCCCGAGGAT	1.0
AGAACCAGGGCAATGAGTTGATAGCACGGGTGGC	0.0
AATACAGGGTCACCAGGCCAGAGTAGGTACGAAT	1.0
TAGCCTAGGTCTTGCGGGCCAGTATAGTGTCGGC	0.0
CCGAGTAGGCTATGGGGCATTCAGGCAACGGTGA	0.0
TAGCCTAGGTCATTCAGGGGCCGGTATAGAAAGC	1.0
CCAGACAGGTGAAACGTAACTCAGTCTGGTACGC	0.0
TCTTGTAGATCAATAGATGTTAAGAAAGTGCGCT	0.0
ACTAGCGGGCCAAGGGTCACTCAAGATTAGTCCG	0.0
TCGAGTAGGGTAGGGGCATTCAGAATGGCGTCGA	1.0
